Target: CD276, Q5ZPR3
Sequence (Q5ZPR3 whole entry): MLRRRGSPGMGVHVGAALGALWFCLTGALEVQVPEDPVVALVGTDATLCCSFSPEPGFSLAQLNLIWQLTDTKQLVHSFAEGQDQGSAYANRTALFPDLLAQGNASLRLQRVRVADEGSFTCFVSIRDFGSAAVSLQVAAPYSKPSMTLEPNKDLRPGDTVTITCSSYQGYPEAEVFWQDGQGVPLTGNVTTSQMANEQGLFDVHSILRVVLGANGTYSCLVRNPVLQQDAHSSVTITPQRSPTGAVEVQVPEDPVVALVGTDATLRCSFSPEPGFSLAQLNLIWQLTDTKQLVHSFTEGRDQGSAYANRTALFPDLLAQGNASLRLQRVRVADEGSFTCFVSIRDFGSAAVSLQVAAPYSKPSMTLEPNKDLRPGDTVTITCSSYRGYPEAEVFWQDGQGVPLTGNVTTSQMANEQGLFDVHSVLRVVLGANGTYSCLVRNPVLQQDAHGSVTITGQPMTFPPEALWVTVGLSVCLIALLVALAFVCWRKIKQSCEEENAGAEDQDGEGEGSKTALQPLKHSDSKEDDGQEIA

binder	binding in a display sort
design_611_394c5ea9-a0d3-47c4-9d48-89ba6a28fdd0_498_dldesign_0_cycle1_af2pred (protein) AAAATLAQVKELIAQAKADPANAAALLSQAIRLAVTTAIAAAAAGDTAAAVALSQAAIEAMKALDEVSKAA	not found (inactive)
design_622_fcc41892-afde-4fb9-b6e8-b664fffd6a75_365_dldesign_0_cycle1_af2pred (protein) AEAAKKNIEIAAKAGEAAVKNLKTMKPEDAKKLYEVVKDLAEYMKEQGKKAPEQAELAKEKAEKIEEEAKKALKEVEEKGKKA	not found (inactive)
design_487_778f5c6d-c470-43b8-8f82-464af6177e08_310_dldesign_0_cycle1_af2pred (protein) AAVLSPEQAGGTFRALATSIRLAAEAGDLDSAEALAAAGLQLAENQPAVAPLVNKAKEEAAKLTPKEAALKLADAFEQAGDALLA	not found (inactive)
